System: Bloodstream form of Trypanosoma brucei, strain Lister 427
experiment.description: Trypanosoma brucei growth inhibition assay (CellTiter-Glo, 24 h)
Format: cell-based
measurement.parameters: Trypanosoma brucei; Table 3; read-out: T. brucei GI EC50
Kindly supply the reported pEC50 values for the records listed here.
Numbers only, as −log10 of the molar value.

COc1ccc2[nH]c(C)c(CC(=O)N3CCN(CC4CCOC4)CC3c3ncc(-c4ccc5ccccc5c4)[nH]3)c2c1 (stereo not drawn)    8.33
CCC(O)CCCN1CCN(C(=O)Cc2c(C)[nH]c3ccc(OC)cc23)C(c2ncc(-c3ccc4ccccc4c3)[nH]2)C1 (stereo not drawn)    7.89

Okay, next one:
Record summary for CCCCCCN1CCN(C(=O)Cc2c(C)[nH]c3ccc(OC)cc23)C(c2ncc(-c3ccc4ccccc4c3)[nH]2)C1 (stereo not drawn) : reported pEC50 = 7.10

----------
Tested on: Bloodstream form of Trypanosoma brucei, strain Lister 427
experiment.description: Trypanosoma brucei growth inhibition assay (CellTiter-Glo, 24 h)
Type: cell-based
measurement.parameters: Trypanosoma brucei; Table 3; read-out: T. brucei GI EC50
readout: log10(EC50) (log10 of the value in µM)
Scale type: logarithmic (base 10). Underlying EC50 unit: µM.

COc1ccc2[nH]c(C)c(CC(=O)N3CCN(CC4CCOC4)CC3c3ncc(-c4cc5ccccc5nc4OC)[nH]3)c2c1 (centres unmarked)    -1.64
COc1nc2ccccc2cc1-c1cnc(C2CN(Cc3nccs3)CCN2C(=O)Cc2c(C)[nH]c3ccc(F)cc23)[nH]1 (centres unmarked)    -1.22
COc1ccc2[nH]c(C)c(CC(=O)N3CCN(C)CC3c3ncc(-c4ccc5ccccc5c4)[nH]3)c2c1 (centres unmarked)    -1.40

Please state log10(EC50) for every molecule in the list that follows.
1. CCC(=O)CCCN1CCN(C(=O)Cc2c(C)[nH]c3ccc(OC)cc23)C(c2ncc(-c3ccc4ccccc4c3)[nH]2)C1 (centres unmarked)
2. CCC(=O)CCCN1CCN(C(=O)Cc2c[nH]c3ncccc23)C(c2ncc(-c3ccc4ccccc4c3)[nH]2)C1 (centres unmarked)
3. COc1nc2ccccc2cc1-c1cnc(C2CN(CC3CCOC3)CCN2C(=O)Cn2c(C(F)(F)F)nc3ccccc32)[nH]1 (centres unmarked)
4. COc1nc2ccccc2cc1-c1cnc(C2CN(C)CCN2C(=O)Cc2c(C)[nH]c3ccc(F)cc23)[nH]1 (centres unmarked)
5. COc1ccc2[nH]c(C)c(CC(=O)N3CCN(CC4CC4)CC3c3ncc(-c4ccc5ccccc5c4)[nH]3)c2c1 (centres unmarked)

[-2.00, -0.26, -1.52, -0.91, -1.75]

----------
Tested on: Bloodstream form of Trypanosoma brucei, strain Lister 427
experiment.description: Trypanosoma brucei growth inhibition assay (CellTiter-Glo, 24 h)
Type: cell-based
measurement.parameters: Trypanosoma brucei; T. Brucei Growth Inibition Assay, class symbols; read-out: T. Brucei GI EC50
Kindly supply the reported EC50 values for the records listed here.

COc1nc2ccccc2cc1-c1cnc(C2CN(CC3CCOC3)CCN2C(=O)Cn2c(C#N)nc3ccccc32)[nH]1 (centres unmarked)    1.01 to 5 µM
COc1ccc2nc(C)n(CC(=O)N3CCN(Cc4nncn4C)C[C@H]3c3ncc(-c4cc5ccccc5nc4OC)[nH]3)c2c1    0.51 to 1 µM

Please state EC50 for every compound in the list that follows.
1. COc1ccc2nc(C(F)(F)F)n(CC(=O)N3CC[C@H](OC)C[C@H]3c3ncc(-c4cc5ccccc5nc4OC)[nH]3)c2c1
2. COc1ccc2nc(C)n(CC(=O)N3CC[C@H](N(C)Cc4cnccn4)C[C@H]3c3ncc(-c4cc5ccccc5nc4OC)[nH]3)c2c1

1: < 0.1 µM; 2: 0.1 to 0.5 µM

----------
Kindly supply the reported IC50 values for the records listed here.
Tested on: HUVEC cells
experiment.description: HUVEC cytotoxicity assay (CellTiter Glo, 72 h)
Type: cell-based
measurement.parameters: Homo sapiens, read-out: Cell Proliferation HUVEC IC50

Worked set:
COc1nc2ccccc2cc1-c1cnc(C2CN(C)CCN2C(=O)Cc2c(C)[nH]c3ccc(F)cc23)[nH]1 (stereo not drawn)    5.68 µM
CCC(=O)CCCN1CCN(C(=O)Cc2c[nH]c3ncccc23)C(c2ncc(-c3ccc4ccccc4c3)[nH]2)C1 (stereo not drawn)    ≥ 25 µM

Okay, next one:
Record summary for CCCCCCN1CCN(C(=O)Cc2c(C)[nH]c3ccc(OC)cc23)C(c2ncc(-c3ccc4ccccc4c3)[nH]2)C1 (stereo not drawn) : reported IC50 = ≥ 25 µM

----------
experiment.description: PK studies: plasma exposure and pharmacokinetic parameters after i.v., oral and i.p. administration
Format: in vivo, C57BL/6 mice
measurement.parameters: C57BL/6, plasma, 10 mg/kg; mouse, 10 mpk, po, single oral dose; read-out: Oral Bioavailability F %
readout: bioavailability (%)
Answers are plain numbers, in %.

Record summary for COc1nc2ccccc2cc1-c1cnc(C2CN(CC3CCOC3)CCN2C(=O)Cn2c(C(F)(F)F)nc3ccccc32)[nH]1 (stereo not shown) : reported bioavailability = 78

----------
Tested on: Bloodstream form of Trypanosoma brucei, strain Lister 427
experiment.description: Trypanosoma brucei growth inhibition assay (CellTiter-Glo, 24 h)
Type: cell-based
measurement.parameters: Trypanosoma brucei; T. Brucei Growth Inibition Assay, class symbols; read-out: T. Brucei GI EC50
Kindly supply the reported EC50 values for the records listed here.

Worked set:
COc1ccc2nc(C(F)(F)F)n(CC(=O)N3CCN(Cc4nccs4)CCC3c3ncc(-c4cc5ccccc5nc4OC)[nH]3)c2c1 (stereo not shown)    < 100 nM
CCN(C1CCOC1)[C@H]1CCN(C(=O)Cn2c(C(F)(F)F)nc3ccc(OC)cc32)[C@H](c2ncc(-c3cc4ccccc4nc3OC)[nH]2)C1 (stereo partly shown)    < 100 nM
COc1nc2ccccc2cc1-c1cnc([C@@H]2CN(Cc3cncc(F)c3)CCN2C(=O)Cn2c(C(F)(F)F)nc3ccccc32)[nH]1    < 100 nM
COc1nc2ccccc2cc1-c1cnc(C2CN(Cc3nccs3)CCN2C(=O)Cc2c(C)[nH]c3ccc(F)cc23)[nH]1 (stereo not shown)    < 100 nM
COc1nc2ccccc2cc1-c1cnc(C2CN(CC3CCOC3)CCN2C(=O)Cn2c(C(F)(F)F)nc3ccccc32)[nH]1 (stereo not shown)    < 100 nM
COc1ccc2c(c1)C(CC(=O)N1CCN(CC3CC3)CC1c1ncc(-c3ccc4ccccc4c3)[nH]1)C(=O)N2 (stereo not shown)    1010 to 5000 nM

Okay, next one:
Lab note: molecule COc1ccc2[nH]cc(CC(=O)N3CCN(CC4CCOC4)CC3c3ncc(-c4cc5ccccc5nc4OC)[nH]3)c2c1 (stereo not shown) tested on Bloodstream form of Trypanosoma brucei, strain Lister 427; recorded EC50 was 100 to 500 nM

----------
Kindly supply the reported pEC50 values for the records listed here.
Test system: Bloodstream form of Trypanosoma brucei, strain Lister 427
experiment.description: Trypanosoma brucei growth inhibition assay (CellTiter-Glo, 24 h)
Type: cell-based
measurement.parameters: Trypanosoma brucei; T. Brucei Growth Inibition Assay, class symbols; read-out: T. Brucei GI EC50
pEC50: −log10 of the molar value.

COc1nc2ccccc2cc1-c1cnc([C@@H]2CN(C[C@@H]3CCOC3)CCN2C(=O)Cn2c(C(F)(F)F)nc3ccccc32)[nH]1 (single isomer, unassigned)    > 7.00
COc1ccc2c(c1)nc(C(F)(F)F)n2CC(=O)N1CCN(CC2CCOC2)C[C@H]1c1ncc(-c2cc3ccccc3nc2OC)[nH]1 (stereo partly drawn)    > 7.00
COc1nc2ccccc2cc1-c1cnc(C2CN(CC3CCCC3)CCN2C(=O)Cc2c(C)[nH]c3ccc(F)cc23)[nH]1 (stereo not drawn)    6.30 to 7.00

Please state pEC50 for every compound in the list that follows.
1. CN1CCN(C(=O)Cc2ccccc2)C(c2ncc(-c3ccc4ccccc4c3)[nH]2)C1 (stereo not drawn)
2. O=C(Cc1c[nH]c2ccc(O)cc12)N1CCN(CC2CCOC2)CC1c1ncc(-c2ccc3ccccc3c2)[nH]1 (stereo not drawn)

5.30 to 6.00
6.00 to 6.29

Please state pEC50 for every compound in the list that follows.
1. COc1ccc2nc(C(F)(F)F)n(CC(=O)N3CCN(Cc4ccn(C)n4)C[C@H]3c3ncc(-c4cc5ccccc5nc4OC)[nH]3)c2c1
2. COc1ccc2nc(C(F)(F)F)n(CC(=O)N3CC[C@H](N(C)Cc4nccs4)C[C@H]3c3ncc(-c4cc5ccccc5nc4OC)[nH]3)c2c1
3. COc1nc2ccccc2cc1-c1cnc(C2CN(C3CCS(=O)(=O)CC3)CCN2C(=O)Cc2c(C)[nH]c3ccc(F)cc23)[nH]1 (stereo not drawn)
4. COc1nc2ccccc2cc1-c1cnc(C2CN(Cc3cnn(C)c3)CCN2C(=O)Cc2c(C)[nH]c3ccc(F)cc23)[nH]1 (stereo not drawn)

1. > 7.00
2. > 7.00
3. 6.30 to 7.00
4. 6.30 to 7.00

----------
Tested on: Bloodstream form of Trypanosoma brucei, strain Lister 427
experiment.description: Trypanosoma brucei growth inhibition assay (CellTiter-Glo, 24 h)
Type: cell-based
measurement.parameters: Trypanosoma brucei; T. Brucei Growth Inibition Assay, class symbols; read-out: T. Brucei GI EC50
pEC50: −log10 of the molar value.
Kindly supply the reported pEC50 values for the records listed here.

Worked set:
COc1ccc2nc(C)n(CC(=O)N3CC[C@H](NCC4CCOC4)C[C@H]3c3ncc(-c4cc5ccccc5nc4OC)[nH]3)c2c1 (stereo partly shown)    5.30 to 6.00
COc1nc2ccccc2cc1-c1cnc(C2CN(Cc3cn(C)nn3)CCN2C(=O)Cc2c(C)[nH]c3ccc(F)cc23)[nH]1 (stereo not shown)    6.30 to 7.00

Please state pEC50 for every compound in the list that follows.
1. COc1ccc2nc(C)n(CC(=O)N3CCN(CC4CCOC4)C[C@H]3c3ncc(/C=C/c4ccccc4)[nH]3)c2c1 (stereo partly shown)
2. CCC(O)CCCN1CCN(C(=O)Cc2c(C)[nH]c3ccc(OC)cc23)C(c2ncc(-c3ccc4ccccc4c3)[nH]2)C1 (stereo not shown)

5.30 to 6.00
> 7.00
